Task for the reader: assign each of the following compounds its reported Potency.
- Procedure details: Identification of antibody-drug conjugate (ADC) payloads which are substrates of ATP-binding cassette drug efflux transporters: ABCB1-HeLa-KB-8-5-11 cell line with tariquidar
- Test context: KB-8-5-11 (P-gp) + tariquidar, viability, CellTiter-Glo, 48 h
Calls of active or inactive are those of the source. Calls follow the shape of the dose curve; as a rule, active = well fitted inhibition curve with a large enough effect; inactive = flat fitted curve, though single readings scatter. Square brackets hold non-standard residues; d marks the D form. Peptide text beside a SMILES is read from it. * marks the point of attachment. Dolaproine = CO[C@@H]([C@@H]1CCCN1)[C@@H](C)C(=O)O; Dil = CC[C@H](C)[C@H](NC)[C@@H](CC(=O)O)OC; X1 = C[C@@H](N*)[C@@H](O)c1ccccc1; NMeV = CN[C@H](C(=O)O)C(C)C

Query string: I am curious: what Potency value has been reported for CC[C@H](C)[C@@H]1NC(=O)CNC(=O)[C@H]2Cc3c([nH]c4cc(O)ccc34)S(=O)C[C@H](NC(=O)CNC1=O)C(=O)N[C@@H](CC(N)=O)C(=O)N1C[C@H](O)C[C@H]1C(=O)N[C@@H]([C@@H](C)[C@@H](O)CO)C(=O)N2 (stereo not given in full) ?
Result string: 4200 nM (active)

Query string: Sample COc1cc2cc(c1Cl)N(C)C(=O)C[C@H](OC(=O)C(C)C)[C@]1(C)O[C@H]1[C@H](C)[C@@H]1C[C@@](O)(NC(=O)O1)[C@H](OC)C=CC=C(C)C2 — what was its Potency?
Result string: 0.1 nM (active)

Query string: Fill in the blank: the reported Potency of CC[C@H](C)[C@@H]([C@@H](CC(=O)N1CCC[C@H]1[C@H](OC)[C@@H](C)C(=O)N[C@H](C)[C@@H](O)c1ccccc1)OC)N(C)C(=O)[C@@H](NC(=O)[C@H](C(C)C)N(C)C)C(C)C is ____.
Result string: 0.2 nM (active)

Query string: Look at this compound and give its reported Potency. CC[C@H](C)[C@@H]([C@@H](CC(=O)N1CCC[C@H]1[C@H](OC)[C@@H](C)C(=O)N[C@H](C)[C@@H](O)c1ccccc1)OC)N(C)C(=O)[C@@H](NC(=O)[C@@H](NC)C(C)C)C(C)C (H-[NMeV]V[Dil][Dolaproine]-X1)
Result string: 0.2 nM (active)

Query string: Any idea what Potency was measured for COc1cccc2c1C(=O)c1c(O)c3c(c(O)c1C2=O)C[C@@](O)(C(=O)CO)CC3OC1CC(N2CCOC(OC)C2)C(O)C(C)O1 (stereo not given in full) ?
Result string: 10.6 nM (active)

Reference for the values: PubChem BioAssay AID2202239
